ASSAY_METHOD_TEXT: cells
EXPERIMENTAL_CONTEXT: Homo sapiens, HEK293
MEASUREMENT_NAME: pIC50
Numbers only, as −log10 of the molar value.

Use the examples below as a reference point.
CN(C)CCC=C1c2ccccc2CCc2ccccc21 :: 4.92
CCCCNc1ccc(C(=O)OCCN(C)C)cc1 :: 4.48
O=C(NCc1ccc(F)c(C(F)(F)F)c1)C1c2ccccc2C(=O)N1CCc1ncc(F)cn1 (stereo unspecified) :: 4.48

Now, please, on to the next compound.
// query Look at this compound and give its reported pIC50. O=C(NCc1ccc(OC(F)(F)F)cc1)C1c2ccccc2C(=O)N1CCc1ccccn1 (stereo in doubt; 16A)
// result 5.00

====

For each record, write down the corresponding microsomal CLint.
ASSAY_METHOD_TEXT: in vitro
EXPERIMENTAL_CONTEXT: rat, microsomes, CLH
Numbers only, in µL/min/mg.

O=C(NCc1ccc(OC(F)(F)F)cc1)C1c2cccc(O)c2C(=O)N1CCc1ncc(F)cn1 (stereo not given) :: 36
O=C(NCc1cccc(Br)c1)C1c2ccccc2C(=O)N1CCc1ccccn1 (stereo not given) :: 47

# return microsomal CLint for each item in the list
1. O=C(NCc1ccc(OC(F)(F)F)cc1)C1c2c(F)cccc2C(=O)N1CCc1ccccn1 (stereo not given)
2. O=C(NCc1cccc(OC(F)(F)F)c1)C1c2ccccc2C(=O)N1CCc1ncc(F)cn1 (stereo not given)
3. O=C(NCc1ccc(Br)cc1)C1c2ccccc2C(=O)N1CCc1ccccn1 (stereo not given)
4. O=C(NCc1ccc(OC(F)(F)F)cc1)C1c2ccccc2C(=O)N1CCCc1ccccn1 (stereo not given)
5. O=C(NCc1cccc(OC(F)(F)F)c1)C1c2ccccc2C(=O)N1CCc1ccccn1 (stereo not given)
6. O=C(NCc1ccc(OC(F)(F)F)cc1)C1c2cccc(O)c2C(=O)N1CCc1ccccn1 (stereo not given)
7. N#CCCN1C(=O)c2ccccc2C1C(=O)NCc1ccc(OC(F)(F)F)cc1 (stereo not given)

// result
10
28
31
31
86
10
16

# return microsomal CLint for each item in the list
1. O=C(NCc1ccc(C(F)(F)F)cc1)C1c2ccccc2C(=O)N1CCc1ccccn1 (stereo not given)
2. Cc1cccc2c1C(C(=O)NCc1ccc(OC(F)(F)F)cc1)N(CCc1ccccn1)C2=O (stereo not given)
3. O=C(NCc1ccc(OC(F)(F)F)cc1)C1c2c(O)cccc2C(=O)N1CCc1ccccn1 (stereo not given)
4. O=C(NCc1ccccc1Br)C1c2ccccc2C(=O)N1CCc1ccccn1 (stereo not given)
5. CC(C)(Cc1ccccn1)N1C(=O)c2ccccc2C1C(=O)NCc1ccc(OC(F)(F)F)cc1 (stereo not given)

// result
58
59
23
20
67

====

For each record, write down the corresponding AUC.
ASSAY_METHOD_TEXT: in vivo
EXPERIMENTAL_CONTEXT: Sprague-Dawley, rat, iv, 3 umol/kg
Answers are plain numbers, in µM·h.

Use the examples below as a reference point.
O=C(NCc1ccc(OC(F)(F)F)cc1)C1c2ccccc2C(=O)N1CCc1ccccn1 (stereo in doubt; 16A) :: 1.7
O=C(NCc1ccc(OC(F)(F)F)cc1)C1c2ccccc2C(=O)N1CCc1ncc(F)cn1 (stereo not given) :: 1.4
O=C(NCc1ccc(OC(F)(F)F)cc1)C1c2ccccc2C(=O)N1C1CCOCC1 (single isomer, unassigned; enantiomer 2) :: 1.7
O=C(NCc1ccc(F)c(C(F)(F)F)c1)C1c2ccccc2C(=O)N1CCc1ncc(F)cn1 (stereo not given) :: 1.6

Now, please, on to the next compound.
// query Look at this compound and give its reported AUC. O=C(NCc1cccc(OC(F)(F)F)c1)C1c2ccccc2C(=O)N1CCc1ncc(F)cn1 (stereo not given)
// result 2.1

====

For each record, write down the corresponding solubility at 4 h.
ASSAY_METHOD_TEXT: physchem
One number for each entry, in µM.

O=C(NCc1ccc(OC(F)(F)F)cc1)C1c2ccccc2C(=O)N1CC(F)(F)c1ccccn1 (centres undefined) :: 2
COc1cccc2c1C(C(=O)NCc1ccc(OC(F)(F)F)cc1)N(CCc1ccccn1)C2=O (centres undefined) :: 4
O=C(NCc1ccc(OC(F)F)nc1)C1c2ccccc2C(=O)N1CCc1ccccn1 (centres undefined) :: 32
O=C(NCc1cccc(OC(F)(F)F)c1)C1c2ccccc2C(=O)N1CCc1ccccn1 (centres undefined) :: 19
O=C(NCc1ccc(OC(F)(F)F)cc1)C1c2ccccc2C(=O)N1CCC1CCOCC1 (centres undefined) :: 20

# return solubility at 4 h for each item in the list
1. CC(NC(=O)C1c2ccccc2C(=O)N1CCc1ccccn1)c1ccc(OCC(F)(F)F)cc1 (centres undefined)
2. CC(C)(C)OC(=O)N1CC(N2C(=O)c3ccccc3C2C(=O)NCc2ccc(OC(F)(F)F)cc2)C1 (centres undefined)
3. O=C(NCc1ccc(OC(F)(F)F)cc1)C1c2ccccc2C(=O)N1C1CC(F)(F)C1 (centres undefined)
4. O=C(NCc1ccc(OC(F)(F)F)cc1)C1c2cccc(O)c2C(=O)N1CCc1ccccn1 (centres undefined)

// result
[34, 30, 4, 15]

====

ASSAY_METHOD_TEXT: in vivo
EXPERIMENTAL_CONTEXT: Sprague-Dawley, rat, iv, 3 umol/kg
For each record, write down the corresponding Vd.
Answers are plain numbers, in L/kg.

Use the examples below as a reference point.
O=C(NCc1cccc(OC(F)(F)F)c1)C1c2ccccc2C(=O)N1CCc1ncc(F)cn1 (centres undefined) :: 0.7
O=C(NCc1ccc(OC(F)(F)F)cc1)C1c2ccccc2C(=O)N1C1CCOCC1 (single isomer, unassigned; enantiomer 2) :: 0.8

# return Vd for each item in the list
1. O=C(NCc1ccc(OC(F)(F)F)cc1)C1c2ccccc2C(=O)N1CCc1ncc(F)cn1 (centres undefined)
2. O=C(NCc1ccc(F)c(C(F)(F)F)c1)C1c2ccccc2C(=O)N1CCc1ncc(F)cn1 (centres undefined)

// result
1: 1.1; 2: 0.9

====

ASSAY_METHOD_TEXT: physchem
For each record, write down the corresponding solubility at 4 h.
Numbers only, in µM.

Use the examples below as a reference point.
O=C(NCc1ccc(OC(F)(F)F)cc1)C1c2ccccc2C(=O)N1CCOCC(F)(F)F (stereo unspecified) :: 3
CC(Cc1ccccn1)N1C(=O)c2ccccc2C1C(=O)NCc1ccc(OC(F)(F)F)cc1 (stereo unspecified) :: 28
CC(C)(C)OC(=O)N1CCC(N2C(=O)c3ccccc3C2C(=O)NCc2ccc(OC(F)(F)F)cc2)CC1 (stereo unspecified) :: 7

# return solubility at 4 h for each item in the list
1. O=C(NCc1ccc(Br)cc1)C1c2ccccc2C(=O)N1CCc1ccccn1 (stereo unspecified)
2. O=C(NCc1ccc(F)c(OC(F)(F)F)c1)C1c2ccccc2C(=O)N1CCc1ncc(F)cn1 (stereo unspecified)
3. O=C(NCc1ccc(OC(F)(F)F)cc1)C1c2ccccc2C(=O)N1CCC(F)(F)F (stereo unspecified)
4. N#C[C@H]1CC[C@H](N2C(=O)c3ccccc3C2C(=O)NCc2ccc(OC(F)(F)F)cc2)CC1 (stereo partly specified)
5. O=C(NCc1ccc(OC(F)(F)F)cc1)C1c2cccc(O)c2C(=O)N1CCc1ncc(F)cn1 (stereo unspecified)
6. O=C(NCc1ccc(CC(F)(F)F)cc1)C1c2ccccc2C(=O)N1CCc1ccccn1 (stereo unspecified)
7. O=C(NCc1ccc(OC(F)(F)F)cc1)C1c2ccccc2C(=O)N1C[C@@H]1CCCO1 (stereo partly specified)
8. COc1cccc2c1C(=O)N(CCc1ccccn1)C2C(=O)NCc1ccc(OC(F)(F)F)cc1 (stereo unspecified)

// result
57
27
11
200
2
120
28
6

====

ASSAY_METHOD_TEXT: in vitro
EXPERIMENTAL_CONTEXT: Sprague-Dawley, rat, plasma
MEASUREMENT_NAME: fraction unbound
Numbers only.

O=C(NCc1ccc(F)c(C(F)(F)F)c1)C1c2ccccc2C(=O)N1CCc1ncc(F)cn1 (stereo not given) :: 0.13
O=C(NCc1ccc(OC(F)(F)F)cc1)C1c2ccccc2C(=O)N1CCc1ncc(F)cn1 (stereo not given) :: 0.092

# return fraction unbound for each item in the list
1. O=C(NCc1ccc(OC(F)(F)F)cc1)C1c2ccccc2C(=O)N1CCc1ccccn1 (stereo in doubt; 16A)
2. O=C(NCc1ccc(OC(F)(F)F)cc1)C1c2ccccc2C(=O)N1C1CCOCC1 (single isomer, unassigned; enantiomer 2)
3. O=C(NCc1cccc(OC(F)(F)F)c1)C1c2ccccc2C(=O)N1CCc1ncc(F)cn1 (stereo not given)

// result
1: 0.045; 2: 0.132; 3: 0.18

====

For each record, write down the corresponding half-life.
ASSAY_METHOD_TEXT: in vivo
EXPERIMENTAL_CONTEXT: Sprague-Dawley, rat, iv, 3 umol/kg
Answers are plain numbers, in min.

O=C(NCc1ccc(OC(F)(F)F)cc1)C1c2ccccc2C(=O)N1C1CCOCC1 (single isomer, unassigned; enantiomer 2) :: 60
O=C(NCc1cccc(OC(F)(F)F)c1)C1c2ccccc2C(=O)N1CCc1ncc(F)cn1 (centres undefined) :: 24
O=C(NCc1ccc(F)c(C(F)(F)F)c1)C1c2ccccc2C(=O)N1CCc1ncc(F)cn1 (centres undefined) :: 24

Now, please, on to the next compound.
// query Look at this compound and give its reported half-life. O=C(NCc1ccc(OC(F)(F)F)cc1)C1c2ccccc2C(=O)N1CCc1ncc(F)cn1 (centres undefined)
// result 24
